test system: Mycobacterium tuberculosis; test: Bacteriostatic activity against Mycobacterium tuberculosis Erdman infected in mouse bone marrow macrophage monolayers assessed as reduction in colony forming units at 4 fold MIC concentration after 7 days; assay type: functional; conditions: Erdman = ATCC 35801, 168 h
Measured EC90 of individual entries

Sample answers from the record:
[[record]]
compound = "NNC(=O)c1ccncc1"
result = "0.03 µg/mL"

[[record]]
compound = "CCCCc1nc(Cl)c(C2NC(=O)NC(C)=C2C(=O)Nc2ccc([N+](=O)[O-])cc2)[nH]1 (centres undefined)"
result = "0.074 µg/mL"

[[record]]
compound = "CCCCc1nc(Cl)c(C2NC(=O)NC(C)=C2C(=O)Nc2ccc(F)cc2)[nH]1 (centres undefined)"
result = "0.039 µg/mL"


Consider the additional compound presented here.
q: Give EC90 for the following compound: CCCCc1nc(Cl)c(C2NC(=O)NC(C)=C2C(=O)Nc2ccc(Cl)cc2)[nH]1 (centres undefined)
a: 0.102 µg/mL
